subject_of_test: BTMD-SKI-1 (Homo sapiens)
Sequence (Q14703 187-997 limits assumed): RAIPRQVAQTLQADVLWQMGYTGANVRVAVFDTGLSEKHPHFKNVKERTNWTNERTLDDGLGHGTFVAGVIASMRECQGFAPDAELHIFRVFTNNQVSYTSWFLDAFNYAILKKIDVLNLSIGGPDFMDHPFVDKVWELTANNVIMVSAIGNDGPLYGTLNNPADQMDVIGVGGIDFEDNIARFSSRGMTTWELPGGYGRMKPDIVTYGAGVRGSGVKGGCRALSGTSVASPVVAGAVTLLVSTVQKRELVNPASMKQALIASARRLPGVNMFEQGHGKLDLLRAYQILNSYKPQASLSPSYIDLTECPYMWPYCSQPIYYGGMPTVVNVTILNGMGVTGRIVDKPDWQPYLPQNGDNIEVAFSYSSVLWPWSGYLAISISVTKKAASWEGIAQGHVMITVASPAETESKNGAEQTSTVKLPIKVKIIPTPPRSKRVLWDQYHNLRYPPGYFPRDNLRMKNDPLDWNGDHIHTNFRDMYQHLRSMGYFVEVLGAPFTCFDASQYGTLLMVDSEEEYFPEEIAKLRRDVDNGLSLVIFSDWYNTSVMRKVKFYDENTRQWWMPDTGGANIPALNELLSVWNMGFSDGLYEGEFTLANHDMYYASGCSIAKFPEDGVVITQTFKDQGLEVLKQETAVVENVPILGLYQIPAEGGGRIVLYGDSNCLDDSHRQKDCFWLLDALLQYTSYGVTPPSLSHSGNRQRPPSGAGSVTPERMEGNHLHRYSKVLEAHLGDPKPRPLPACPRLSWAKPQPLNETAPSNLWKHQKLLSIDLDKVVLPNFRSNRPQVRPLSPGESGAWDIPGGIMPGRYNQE
Sequence (Q14703 17-137 partner limits assumed): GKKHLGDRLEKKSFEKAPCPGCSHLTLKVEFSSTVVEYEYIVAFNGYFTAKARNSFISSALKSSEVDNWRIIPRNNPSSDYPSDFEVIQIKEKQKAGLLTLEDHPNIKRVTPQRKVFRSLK
procedure_summary: biochemical
Type: biochemical
Assign Hydrolysis of SREBP-2 peptide (% of control) to each entry below.

Reading of Hydrolysis of SREBP-2 peptide (% of control) for CC(C)C[C@H](NC(=O)[C@H]1O[C@@H]1C(=O)O)C(=O)NCCCCN=C(N)N [Peptide E-64] with BTMD-SKI-1 (Homo sapiens): 100 % of control

Reading of Hydrolysis of SREBP-2 peptide (% of control) for Nc1ccc(CS(=O)(=O)F)cc1 [APMSF, para-aminophenylmethylsulfonyl fluoride] with BTMD-SKI-1 (Homo sapiens): 95 % of control

Reading of Hydrolysis of SREBP-2 peptide (% of control) for Cc1ccc(S(=O)(=O)N[C@@H](Cc2ccccc2)C(=O)CCl)cc1 [TPCK] with BTMD-SKI-1 (Homo sapiens): 71 % of control

Reading of Hydrolysis of SREBP-2 peptide (% of control) for Cc1ccc(S(=O)(=O)NC(CCCCN)C(=O)CCl)cc1 (centres unmarked) [TLCK] with BTMD-SKI-1 (Homo sapiens): 100 % of control

Reading of Hydrolysis of SREBP-2 peptide (% of control) for O=S(=O)([O-])[O-].[Cu+2] [CuSO4] with BTMD-SKI-1 (Homo sapiens): 0 % of control
